This collection of values is drawn from PubChem BioAssay (EPA / NIEHS).

read-out: Vascular cell adhesion molecule 1 (VCAM1), VCAM1 (gene 7412); experiment: BSK_hDFCGF_VCAM1: BioMAP Diversity Plus: hDFCGF Assay for Vascular cell adhesion molecule 1 (VCAM1) Biomarker Activity (AID 2283065); details: primary human foreskin fibroblasts; actives raise or lower the signal;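 as to AC50: VCAM-1 protein level quantified by ELISA after 24 h chemical exposure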
Active and inactive are the calls of the source. The calls were made as follows: active = hit-call score of the fitted dose curve at least 0.9, where 1 is the maximum; inactive = score below 0.9.
Metric Name: AC50

• NC(=O)N1C(=O)C(C(=O)c2cc(Cl)cs2)c2cc(F)c(Cl)cc21 (stereo not given) = 5.54 µM (active)
• CC(C)CCCCCCOC(=O)CCCCC(=O)OCCCCCCC(C)C = inactive
• CC(C)(C)c1cc(C(C)(C)C)c(O)c(C(C)(C)C)c1 = 31.5 µM (active)
• CCN(CC)CCNc1ccc(CNC=O)c2sc3ccc(OC)cc3c(=O)c12 = 32.4 µM (active)
• Oc1cccc(O)c1 = inactive
• CC(C)(C)c1ccc(O)c(C(C)(C)C)c1 = 9.1 µM (active)
• ClC1=C(Cl)C(Cl)(Cl)C(Cl)=C1Cl = 6.75 µM (active)
• Cc1cc(C)c(O)c(C)c1 = inactive
• CCCCCCCCC(=O)O = inactive
• NCC(F)(F)C(F)(F)C(F)(F)C(F)(F)C(F)(F)C(F)(F)C(F)(F)F = inactive
• CC1=C(/C=C/C(C)=C/C=C/C(C)=C/C(=O)O)C(C)(C)CCC1 = 18.5 µM (active)
• Oc1cc2ccccc2c2ccccc12 = 2.07 µM (active)
• CN1CCN(c2ccccc2/C=C2\SCCN(c3ccc(Cl)c(Cl)c3)C2=O)CC1 = 31.8 µM (active)
• CCCCCCCC(=O)O = inactive
• CCOC(=O)CC(O)(CC(=O)OCC)C(=O)OCC = inactive
• FC(F)(I)C(F)(F)C(F)(F)C(F)(F)C(F)(F)C(F)(F)I = 3.81 µM (active) [middle of 5 runs]
• c1ccc2c(c1)ccc1ccccc12 = inactive
• CC(=O)CC(C)(C)O = inactive
• CCCCCCCCCCCCN1CCCC1=O = 33 µM (active)
• CCCCOCCO = inactive
• CCCCCCCCOC(=O)CCCCCCCCC(=O)OCCCCCCCC = inactive
• CN1CCC[C@H]1c1cccnc1 = inactive
• COCC(C)OCC(C)O (stereo not given) = inactive
• CCCCC(CC)COC(=O)CCCCC(=O)OCC(CC)CCCC (stereo not given) = inactive
• O=C(OCCOCCOC(=O)c1ccccc1)c1ccccc1 = inactive
• CC[C@H](C)[C@@H](C(=O)O)n1sc2ccccc2c1=O = inactive
• CCCOc1sc(C(=O)N2CCC(c3cc(CN)ccc3F)CC2)c(C)c1Br = 9.91 µM (active)
• CCc1ccc(CCOc2ccc(CC3SC(=O)NC3=O)cc2)nc1 (stereo not given) = inactive
• O=[N+]([O-])c1ccc(O)cc1 = inactive
• CC(O)CO (stereo not given) = inactive
• CCCCCCCCCCCCCC[N+](C)(C)C = 4.06 µM (active)
• CCCCCCC(=O)O = inactive
• O=C(O)Cc1cc(I)c(Oc2cc(I)c(O)c(I)c2)c(I)c1 = 8.85 µM (active)
• NC(=O)N(O)[C@@H]1C=C[C@H](Oc2cccc(Oc3ccc(F)cc3)c2)C1 = 8.65 µM (active)
• CCC(=C(c1ccc(O)cc1)c1ccc(OCCN(C)C)cc1)c1ccccc1 = 10.7 µM (active)
• Nc1cccc2c(N)cccc12 = 6.83 µM (active)
• CCCOC(=O)c1ccc(O)cc1 = inactive
• c1ccc2c(c1)Cc1ccccc1-2 = inactive
• O=c1c(-c2ccc(O)cc2)coc2cc(O)ccc12 = inactive
• CCCCCCCCCCCCCCCS(=O)(=O)Oc1ccccc1 = inactive
• COc1ccc([N+](=O)[O-])cc1N = inactive
• O=C(O)c1ccccc1C(c1ccc(O)cc1)c1ccc(O)cc1 = inactive
• C=C(C)C(=O)OCCC(F)(F)C(F)(F)C(F)(F)C(F)(F)C(F)(F)C(F)(F)F = inactive
• Cc1cc(CCN2CCN(c3nsc4ccccc34)CC2)cc2c1NC(=O)CC2(C)C = 5.57 µM (active)
• CCc1nn(C2CCCCC2)c2cc(C3(C#N)CCC(C(=O)O)CC3)ccc12 (stereo not given) = 7.89 µM (active)
